# MEASURED_ON: Neu5Ac(a2-6)Gal(b1-4)GlcNAc(b1-3)Gal(b1-4)GlcNAc(b1-3)Gal(b1-4)GlcNAc
# RUN_DESCRIPTION: glycan array binding signal (z-score within array); higher = stronger binding
# ASSAY_SETUP: glycan notation: IUPAC condensed, linker removed
The full list was thinned out, with the strongest signals kept by preference.
Listed below: glycan array binding signal (z-score) values for each entry.

Observe how each entry below is paired with its result.
Strep tagII-anxA1 (Homo sapiens), P04083 (protein) MAMVSEFLKQAWFIENEEQEYVQTVKSSKGGPGSAVSPYPTFNPSSDVAALHKAIMVKGVDEATIIDILTKRNNAQRQQIKAAYLQETGKPLDETLKKALTGHLEEVVLALLKTPAQFDADELRAAMKGLGTDEDTLIEILASRTNKEIRDINRVYREELKRDLAKDITSDTSGDFRNALLSLAKGDRSEDFGVNEDLADSDARALYEAGERRKGTDVNVFNTILTTRSYPQLRRVFQKYTKYSKHDMNKVLDLELKGDIEKCLTAIVKCATSKPAFFAEKLHQAMKGVGTRHKALIRIMVSRSEIDMNDIKAFYQKMYGISLCQAILDETKGDYEKILVALCGGN; 0.122
LTL (Lotus tetragonolobus), P19664 (protein) VSFNYTEFKDDGSLILQGDAKIWTDGRLAMPTDPLVNNPKTTRSAGRALYATPVPIWDSATGNVASFVTSFNFLFVIRELKYTPTDGLVFFLAPVGTEIPSGSTGGFLGIFDGSNGFNQFVAVEFDSYHNIWDPKSLRSSHVGIDVNSIMSLKAVNWNRVSGSLEKATIIYDSQTNILSVVMTSQNGQITTIYGTIDLKTVLPEKVSVGFSATTGNPEREKHDIYSWSFTSTLKEPEEQA; -0.226
DCL-1 (Homo sapiens), Q8IX05 (protein) MLRAALPALLLPLLGLAAAAVADCPSSTWIQFQDSCYIFLQEAIKVESIEDVRNQCTDHGADMISIHNEEENAFILDTLKKQWKGPDDILLGMFYDTDDASFKWFDNSNMTFDKWTDQDDDEDLVDTCAFLHIKTGEWKKGNCEVSSVEGTLCKTAIPYKRKYLSDNHILISALVIASTVILTVLGAIIWFLYKKHSDSRFTTVFSTAPQSPYNEDCVLVVGEENEYPVQFD; -1.67
CLEC-1 (Homo sapiens), Q9NZH3 (protein) MQAKYSSTRDMLDDDGDTTMSLHSQASATTRHPEPRRTEHRAPSSTWRPVALTLLTLCLVLLIGLAAWGLLFFQYYQLSNTGQDTISQMEERLGNTSQELQSLQVQNIKLAGSLQHVAEKLCRELYNKAGAHRCSPCTEQWKWHGDNCYQFYKDSKSWEDCKYFCLSENSTMLKINKQEDLEFAASQSYSEFFYSYWTGLLRPDSGKAWLWMDGTPFTSELFHIIIDVTSPRSRDCVAILNGMIFSKDCKELKRCVCERRAGMVKPESLHVPPETLGEGD; -0.43

Please look at the following binder next.
Memo: Gal 2 (Canis lupus) (protein) MSGKFEVMNMDMKLGGTLKIKGKIAGDADGFVINLGQGSDKLNLHFNPRFHESVIVCNSRNWGQEQRDKHMCFSPGSEVKFTVTFENDGFKVKLPDGHQLTFPNRLGHSHLSYLGVQGGLKVSSFKIE , reported glycan array binding signal (z-score): -0.293
